Known pIC50 of a selection of compounds
target: VIM-1 (Pseudomonas aeruginosa, UniProt A0A0F7KYQ8); assay: Enzyme activity: determination of IC50, fluorescence assay with CCF2-FA substrate; assay type: biochemical; details: VIM-1 enzyme 30 pM, CCF2-FA 1.25 μM, 2 hours at 25° C.; read-out: VIM1 IC50
// pIC50 is dimensionless: -log10 of concentration (M)

Reference set, count: 2
CCC[C@H](C(=O)O)[C@H](Cc1cc(C(F)(F)F)cc(C(F)(F)F)c1)c1nnn[nH]1; 9.12
CCC[C@H](C(=O)O)[C@H](Cc1cccc(-c2cncc3ccccc23)c1)c1nn[nH]n1; 8.77

Next item in the queue.
Please state recorded pIC50 (tested on VIM-1 (Pseudomonas aeruginosa, UniProt A0A0F7KYQ8)) of `CC(C)C[C@H](C(=O)O)[C@H](Cc1ccc(N2CCC(CNS(C)(=O)=O)CC2)nc1)c1nnn[nH]1`
7.32

###

target: VIM-1 (Pseudomonas aeruginosa); assay: Enzyme activity: determination of IC50, fluorescence assay with CCF2-FA substrate; assay type: biochemical; conditions: VIM-1 enzyme 30 pM, CCF2-FA 1.25 μM, 2 hours at 25° C.; read-out: VIM1 IC50
pIC50: −log10 of the molar value.
Would you please tag the item MET when its pIC50 is 8 or above, and NOT MET when it is below?

Consider the worked cases shown below.
CC(C)C[C@H](C(=O)O)[C@H](Cc1ccc(N[C@@H]2CC[C@H](N)C2)nc1)c1nnn[nH]1; NOT MET
CCC[C@H](C(=O)O)[C@H](Cc1ccccc1-c1ccccc1)c1nn[nH]n1; MET
CCC[C@H](C(=O)O)[C@H](Cc1ccccc1F)c1nnn[nH]1; MET

Decide: is the reported value of pIC50 for `CCC[C@H](C(=O)O)[C@H](Cc1cccc(-c2cccnc2)c1)c1nn[nH]n1` equal to or greater than 8?
MET

Decide: is the reported value of pIC50 for `CCC[C@H](C(=O)O)[C@H](Cc1cccc(-c2ccc(NS(C)(=O)=O)cc2)c1)c1nn[nH]n1` equal to or greater than 8?
MET

Decide: is the reported value of pIC50 for CC(C)C[C@H](C(=O)O)[C@H](Cc1ccc(N2CCCC(CO)C2)nc1)c1nnn[nH]1 (stereo partly shown) equal to or greater than 8?
NOT MET

Decide: is the reported value of pIC50 for CCC[C@H](C(=O)O)[C@H](Cc1ccc(C2CCN(C(=N)N)C2)cc1)c1nnn[nH]1 (stereo partly shown) equal to or greater than 8?
MET

Decide: is the reported value of pIC50 for `CCC[C@H](C(=O)O)[C@H](Cc1ccc(-c2cnc3[nH]c(=O)[nH]c3c2)cc1)c1nnn[nH]1` equal to or greater than 8?
MET

Decide: is the reported value of pIC50 for `CCC[C@@H](C(=O)O)[C@H](Cc1ccc(-c2ccc3nnn(C)c3c2)cc1)c1nnn[nH]1` equal to or greater than 8?
NOT MET

Decide: is the reported value of pIC50 for CCC[C@H](C(=O)O)[C@H](Cc1ccc(C2CCN(C=N)C2)cc1)c1nnn[nH]1 (stereo partly shown) equal to or greater than 8?
MET

Decide: is the reported value of pIC50 for `CC(C)C[C@H](C(=O)O)[C@H](Cc1ccc(N2CCC3(CC2)CNC3)nc1)c1nnn[nH]1` equal to or greater than 8?
NOT MET
